# System: RXRa DBDmut IVT, anti-RXR (DBD mutation: RXRa K156A/R161A, NR concentration 90 nM)
# experiment: PBM binding z-score (relative to random genomic background probes); higher = stronger binding; sequences stand for … in GC…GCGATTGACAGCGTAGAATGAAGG
Listing of recorded PBM binding z-score by entry.
experimentalReadout: PBM binding z-score

querySequence	reportedValue
TCATATAGGTAAAATGTGAAAGTCGGTGTGGTAA	1.45
CCTACTGCGCCAAAAAGGTCATTGATGCCGATAA	1.65
CGTCAAAGTGCAAGGTAACGTAACAGAAAGCAGC	1.21
CCGAGTAGGTTATGGGGCAGTCAGGCAACGGTGA	-0.557
AGAATGAGGTTAAGATGAGGGAAACAGAATACAT	1.17
CCTGCTAAGTCAATGGTCAGCTAAAGCAGCTCGC	0.497
AGAATGAGCTTATACGTAGATCAGGGAAGAAAGT	-0.769
TCTCGGATGACACGAAGGTCAGAGCTTTCCAGAG	0.542
AGAAAGAGGTTATTAAGATCAGGGAATTGCGGTC	1.26
ATCTCTAGGTAATGATAGTTCAGTGAATGCAAAT	0.246
ACAGACAGGTGATGAAGCTAACTCAGGCTATCAT	-0.327
CCTTACGGGTCAAGGTTATAGCACGGGTGGTACG	0.875
CCTAGTTGGTCAGGATGTCACACACCGGATATGA	0.164
CGTTAAAGTTCAACTAAGGTAACGTAAAGCACGC	4.8
TCGAGTAGGTTAGGGGTATTCAGAATGGCGTCGA	0.297
CCTGCTAGGTCATGATCAGCTAATCTACAGTATG	1.65
ATCGAAAGGTCGTGAGGTGCGTATACAGAAAGGC	1.16
TCTATTAGTTAATTAGGGCAACCGAAACAGCGGA	1.16
CGTCAAAGTTCAAGGTAAGGTAACAGAAAGCAGC	4.12
AAAATGAGGTTACCAAAGATCAGGGAAACGCTTG	1.54
CGACCGAGGGCATGAGTTGATAGCAAATGCCGAT	1.81
GGAACGAGGGCAAGTGGATAGCAGAGTTTGATGG	1.93
TCAGACAGTTGAAGGTAACTCAGGTACGCAGTCG	1.29
TCTAGTTGGTCAAGGAGGTCACACACGACGGGTA	0.835
CCTCGGAGGACATAAGGTCAGAGCTGTCCGCTTT	0.965
TAATATAGGTAAAAGGTGAAAGTCGGTGTGGTAA	0.341
AGAATGAGGTTATACGTATATCAGGGAAGAAAGT	1.42
ATACCAAGGTGACCGTGAGGTCGTTGATACTAAC	0.82
CAAACTAGGTCAAAGGTCAAAGTCGAGCCAACCA	2.87
CGTCCAAGGTGAGAGAGGTCAGTGAATGCCGAGT	0.994
CCGACTGGGGCATAAGGTTACCATGAGCCAGCCC	-0.562
GCTAGCAGACCATTTGGGTCACTCAATGACGGGC	-0.303
ATCTCTAGGTAACCAAGTTCAGTAAATGCCGAAC	1.13
ACTACCAGGCCAAGGGTCACTCAAGATTAGTCCG	0.629
CACGAAAGGTCGTGCTCAGGTGAGTATACCAAAC	2.24

###

Property: PBM binding z-score; scope: individual sequences
# Test system: PPARg:RXRa IVT, anti-PPARg (NR concentration 270 nM, RXRa partner concentration 90 nM)
# experiment: PBM binding z-score (relative to random genomic background probes); higher = stronger binding; sequences stand for … in GC…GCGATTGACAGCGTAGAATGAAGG

querySequence	PBM binding z-score
TCACGGAGGACACGAAGGTCAGAGCTTTCCAGAG	0.826
TAGACTAGGTCATTGGGCCAGTATAGTACGCATC	6.51
CCTCGGAGGACAACAGGAGGTCAGCGCTGCCAGA	0.649
CCTTACGGGTCACGAGTTTATAGCACGACGAGCG	5.06
CGAACCAGGTCATCCAGGACAGTGAATACATTGA	5.48
TCCATTAGTTGAAGGGCAACCGACGAGTCCGTTT	0.637
ACTGGTTGGTCAGCTGAGGTCACACACAATTCGG	2.22
TCTCGGAGCACACGAAGGTCAGAGCTTTCCAGAG	0.198
CCGACTGGGGCAAGGTTGCCATAACGCACAGCCA	2.53
CGTCCAAGGACAGCAGGTCAGTGAAAGCGACGTG	0.113
GCAGACAGGTGAAACGCAGGTAACTCAAGGTGGC	0.401
CAAACTAGGTCACGAATGGTCAAAGTCGAATGAC	9.26

###

# Test system: VDR:RXRa (NR concentration 270 nM, RXRa partner concentration 90 nM)
# experiment: PBM binding z-score (relative to random genomic background probes); higher = stronger binding; sequences stand for … in GC…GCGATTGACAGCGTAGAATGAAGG
Each entry falls in a class defined on PBM binding z-score; the bands are low: < 0.3; mid: ≥ 0.3 and < 2; high: ≥ 2

querySequence	targetUnderTest	classLabel
AGAATGAGGTTACCAAAGATCAGGGCAACGCTTG	VDR:RXRa (NR concentration 270 nM, RXRa partner concentration 90 nM)	mid
TAGCCTAGGGCATGCGGGCCAGTATAGTGTCGGC	VDR:RXRa (NR concentration 270 nM, RXRa partner concentration 90 nM)	low
CCTACTGGGCCATCACGTCATTGATATCAACGTT	VDR:RXRa (NR concentration 270 nM, RXRa partner concentration 90 nM)	low
CCTTACGAGTCAAGGTTATAGCACGGGTGGTACG	VDR:RXRa (NR concentration 270 nM, RXRa partner concentration 90 nM)	mid
AGAACGAGGGGAATGAGTTGATAGCACGGGTGGC	VDR:RXRa (NR concentration 270 nM, RXRa partner concentration 90 nM)	high
TCAGACAGGTGAAGCTAACTCAGGTACGCAGTCG	VDR:RXRa (NR concentration 270 nM, RXRa partner concentration 90 nM)	mid
CCTTACGGGTCAAGCTTATAGCACGGGTGGTACG	VDR:RXRa (NR concentration 270 nM, RXRa partner concentration 90 nM)	high
TCTCGGAGGACACGAAAGGTCAGAGCTCGACATC	VDR:RXRa (NR concentration 270 nM, RXRa partner concentration 90 nM)	high
AGAATGAGGTTATACGTACATCAGGGAAGAAAGT	VDR:RXRa (NR concentration 270 nM, RXRa partner concentration 90 nM)	mid

###

# key: entry, value: PBM binding z-score
# Test system: VDR homodimer (NR concentration 270 nM)
# experiment: PBM binding z-score (relative to random genomic background probes); higher = stronger binding; sequences stand for … in GC…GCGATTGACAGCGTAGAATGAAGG

querySequence	targetUnderTest	PBM binding z-score
AGTCAAAGTTCATCTAGATAACGTAAGATATGCT	VDR homodimer (NR concentration 270 nM)	4.4
ACAGACAGGTGAGCGAAGGTAACTCAGCTGGACG	VDR homodimer (NR concentration 270 nM)	-0.771
ATCGAAATGTCGACGAGGTGAGTATACACCGTTT	VDR homodimer (NR concentration 270 nM)	-0.13
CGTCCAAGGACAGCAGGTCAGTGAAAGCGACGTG	VDR homodimer (NR concentration 270 nM)	-0.264
GATACAGGGTAAGCTAGAGGCCAGAGTATGGAAA	VDR homodimer (NR concentration 270 nM)	-0.382
CCTAGCAGGCCAGGGTCAGTCAAGCATTTCGCTT	VDR homodimer (NR concentration 270 nM)	0.172
TCATATAGTTAATACAGGTGAAAGTCGGCATCTA	VDR homodimer (NR concentration 270 nM)	0.657
CGAACAAGGTCAAGGACAGTGAATCTCCGCACGC	VDR homodimer (NR concentration 270 nM)	2.3
CCTGGTTGGTCAAGGTCACACACGCTATAGGTAC	VDR homodimer (NR concentration 270 nM)	3.51

###

Catalogue of PBM binding z-score readings, one per entry.
# Test system: FXR:RXRa (NR concentration 270 nM, RXRa partner concentration 90 nM)
# experiment: PBM binding z-score (relative to random genomic background probes); higher = stronger binding; sequences stand for … in GC…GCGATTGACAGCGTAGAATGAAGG
experimentalReadout: PBM binding z-score

querySequence	targetUnderTest	experimentalReadout	reportedValue
TTACCAAGGTAAAGGTCGTTGATCCCTCTGTAGA	FXR:RXRa (NR concentration 270 nM, RXRa partner concentration 90 nM)	PBM binding z-score	3.54
AGTCATAGTTCATCTAGGTAACGTAAGATATGCT	FXR:RXRa (NR concentration 270 nM, RXRa partner concentration 90 nM)	PBM binding z-score	2.22
TCTGGTAGATCAAAGGTTAAGAAAGCCGAAGCCT	FXR:RXRa (NR concentration 270 nM, RXRa partner concentration 90 nM)	PBM binding z-score	1.8
ACTGGCAGGCCAAGTTTGGGTCACTCAAACAAAG	FXR:RXRa (NR concentration 270 nM, RXRa partner concentration 90 nM)	PBM binding z-score	0.314
TCGAGTAGGTTACCAATGGGGCATTCTGCTTTCT	FXR:RXRa (NR concentration 270 nM, RXRa partner concentration 90 nM)	PBM binding z-score	0.0174
CCGACTGGGGCCAAGGTTACCATACTCAGTACGA	FXR:RXRa (NR concentration 270 nM, RXRa partner concentration 90 nM)	PBM binding z-score	0.714
CCAGACAGGTGAGAAGGGAACTCAGCCTCGATTA	FXR:RXRa (NR concentration 270 nM, RXRa partner concentration 90 nM)	PBM binding z-score	-0.0941
TAGCCTAGGTCATGGGCCAGTACACCACGCGAAC	FXR:RXRa (NR concentration 270 nM, RXRa partner concentration 90 nM)	PBM binding z-score	4.77
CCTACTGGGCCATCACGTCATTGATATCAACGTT	FXR:RXRa (NR concentration 270 nM, RXRa partner concentration 90 nM)	PBM binding z-score	-0.11
CCAGTCAGGTGAAAGGTAACTCAGTCTGGTACGC	FXR:RXRa (NR concentration 270 nM, RXRa partner concentration 90 nM)	PBM binding z-score	0.669
AGTCAATGTTCAGGACGAGGTAACGTAAAGCACG	FXR:RXRa (NR concentration 270 nM, RXRa partner concentration 90 nM)	PBM binding z-score	-0.0403
CCTAGTTGGTCAAGGTCACACGCGCTATAGGTAC	FXR:RXRa (NR concentration 270 nM, RXRa partner concentration 90 nM)	PBM binding z-score	4.49
